Data origin: patent US11332470B2

assay: Fraction of drug unbound to brain proteins; format: in vitro ADME, Mouse; conditions: Table 9, mouse, read-out: Fu (b) % (fraction of drug unbound to brain proteins)

{"Compound": "CN1CCN(c2cccc3[nH]c(CN4CCCC4c4ncccc4Cl)nc23)CC1 (stereo not shown) [Compound I-26]", "fraction unbound": 0.076}
{"Compound": "CN1CCN(c2c(CN3CCCC3c3ccccn3)nc3ccccn23)CC1 (stereo not shown) [Compound I-41]", "fraction unbound": 0.069}
{"Compound": "CN1CCN(c2c(CN3CCCC3c3ccccn3)nc3ccc(F)cn23)CC1 (stereo not shown) [Compound I-63]", "fraction unbound": 0.053}
{"Compound": "CN1CCN(c2c(CN3CCCC3c3nccs3)nc3ccccn23)CC1 (stereo not shown) [Compound I-70]", "fraction unbound": 0.207}
